Experiment: Determination of in vivo pharmacokinetic parameters (Biological Example 3)
Parameters: species or system rat
Settings: male, rat, whole blood; Blood, IV 1 mg/kg, Mean
recorded_metric: Cmax (ng/mL)

compound	units_symbol	value_measured
CC[C@H]1NC(=O)N(c2ccc(Oc3ccc(C)c4c3C3(CC3)CO4)cn2)C1=O [compound of the invention]	ng/mL	904

====

Assay: Determination of in vivo pharmacokinetic parameters (Biological Example 3)
Set-up: species or system rat
Conditions: male, rat, whole blood; Blood, IV 1 mg/kg, Median

chemical_structure	Tmax / min
CC[C@H]1NC(=O)N(c2ccc(Oc3ccc(C)c4c3C3(CC3)CO4)cn2)C1=O	4.98

====

Test: Determination of in vivo pharmacokinetic parameters (Biological Example 3)
Design: species or system rat
Conditions: male, rat, whole blood; Blood, IV 1 mg/kg, Mean; read-out: Vdss
Method: […] After oral administration, blood samples are collected under deep Isofluorane anesthesia from the portal vein and heart of each rat (1 rat per time point). […] The concentrations of test compound in blood (expressed as ng/ml) and brain (expressed as ng/g) at the different time points following either oral or intravenous dosing are analysed using a non-compartmental pharmacokinetic model using WinNonLin Professional version 4.1. […]
recorded_metric: Vd (L/kg)

compound	recorded_metric	units_symbol	value_measured
CC[C@H]1NC(=O)N(c2ccc(Oc3ccc(C)c4c3C3(CC3)CO4)cn2)C1=O [compound of the invention]	Vd	L/kg	1

====

Assay: Determination of in vivo pharmacokinetic parameters (Biological Example 3)
Design: species or system rat
Details: male, rat, whole blood; Blood, IV 1 mg/kg, Mean
recorded_metric: clearance (mL/min/kg)

chemical_structure	recorded_metric	value_measured
CC[C@H]1NC(=O)N(c2ccc(Oc3ccc(C)c4c3C3(CC3)CO4)cn2)C1=O	clearance	47.6

====

Experiment: Determination of in vivo pharmacokinetic parameters (Biological Example 3)
Set-up: species or system rat
Details: male, rat, whole blood; Blood, PO 3 mg/kg, Mean
recorded_metric: AUC(0-inf) (µg·h/mL)

compound	value_measured
CC[C@H]1NC(=O)N(c2ccc(Oc3ccc(C)c4c3C3(CC3)CO4)cn2)C1=O [compound of the invention]	1.44

All figures here come from patent US20200039970A1.
